biological target: Glucocorticoid receptor (Homo sapiens) (UniProt P04150); test: qHTS assay to identify small molecule antagonists of the glucocorticoid receptor (GR) signaling pathway (AID 720692); details: GR-bla HeLa, beta-lactamase FRET ratio, dexamethasone-stimulated, 18 h; series mostly up to 58.5 µM
Sequence (P04150 whole entry, looked up): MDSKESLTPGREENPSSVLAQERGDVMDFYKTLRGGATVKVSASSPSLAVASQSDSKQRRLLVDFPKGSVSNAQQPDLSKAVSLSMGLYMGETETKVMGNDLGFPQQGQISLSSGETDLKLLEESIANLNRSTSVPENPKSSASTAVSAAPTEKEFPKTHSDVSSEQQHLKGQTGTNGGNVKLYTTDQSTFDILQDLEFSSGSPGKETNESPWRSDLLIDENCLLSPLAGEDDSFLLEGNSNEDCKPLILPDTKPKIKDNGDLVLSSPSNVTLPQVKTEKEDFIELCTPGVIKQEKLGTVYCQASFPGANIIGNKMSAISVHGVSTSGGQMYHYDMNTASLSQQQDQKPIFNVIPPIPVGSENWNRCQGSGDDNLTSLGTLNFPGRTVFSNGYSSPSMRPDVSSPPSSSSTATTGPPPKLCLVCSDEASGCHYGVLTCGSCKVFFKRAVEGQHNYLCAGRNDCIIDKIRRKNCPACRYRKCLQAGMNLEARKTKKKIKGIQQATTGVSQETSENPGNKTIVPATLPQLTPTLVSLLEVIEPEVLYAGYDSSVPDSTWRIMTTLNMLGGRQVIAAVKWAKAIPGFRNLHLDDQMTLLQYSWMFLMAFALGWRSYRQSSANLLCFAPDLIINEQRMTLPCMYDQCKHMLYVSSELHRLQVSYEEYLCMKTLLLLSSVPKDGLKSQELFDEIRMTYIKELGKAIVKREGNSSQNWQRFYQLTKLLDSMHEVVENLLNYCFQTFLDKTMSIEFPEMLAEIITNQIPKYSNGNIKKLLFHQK
Inconclusive results are not listed. The source made the active and inactive calls. Calls follow the shape of the dose curve; as a rule, active = well fitted inhibition curve with a large enough effect in the signal ratio in the repeat runs (not every such curve was filed as active); inconclusive = weak or mixed curves, or effect the other way; inactive = no such curve, though single readings can be large or run the other way; the % refers to the signal ratio.
Allowed answers: active, inactive

Prompt: GET /call?item= O=C1Nc2ccc(Cl)cc2C(c2ccccc2Cl)=NC1O (configuration not stated) returns the recorded outcome of this test.
Response: inactive

Prompt: GET /call?item= "O[C@H]1[C@H]2[C@H](O)CCCN2C[C@H]1O" returns the recorded outcome of this test.
Response: inactive

Prompt: GET /call?item= "CCC1(CC)C(=O)NC(=O)N(C)C1=O" returns the recorded outcome of this test.
Response: inactive

Prompt: GET /call?item= "CNc1ccccc1" returns the recorded outcome of this test.
Response: inactive

Prompt: GET /call?item= COc1ccc2c(c1)C13CCCC[C@@H]1C(C2)N(C)CC3 (some centres not stated) returns the recorded outcome of this test.
Response: inactive

Prompt: GET /call?item= "O=C1CN(O)C(c2ccccc2)=c2cc(Cl)ccc2=N1" returns the recorded outcome of this test.
Response: inactive

Prompt: GET /call?item= "COc1cc(C[C@H](C)N)c(OC)cc1C" returns the recorded outcome of this test.
Response: inactive

Prompt: GET /call?item= "C=CCC1([C@@H](C)CCC)C(=O)NC(=O)NC1=O" returns the recorded outcome of this test.
Response: inactive

Prompt: GET /call?item= CN1[C@@H]2CC[C@H]1CC(OC1c3ccccc3CCc3ccccc31)C2 (some centres not stated) returns the recorded outcome of this test.
Response: inactive

Prompt: GET /call?item= "COC1=CC=C2[C@H]3Cc4ccc(OC)c5c4[C@@]2(CCN3C)[C@H]1O5" returns the recorded outcome of this test.
Response: inactive

Prompt: GET /call?item= "CN=C1CN(O)C(c2ccccc2)=c2cc(Cl)ccc2=N1" returns the recorded outcome of this test.
Response: inactive

Prompt: GET /call?item= "C=CCOc1c(Br)cc(C(C)(C)c2cc(Br)c(OCC=C)c(Br)c2)cc1Br" returns the recorded outcome of this test.
Response: inactive

Prompt: GET /call?item= "CC(C)[C@@]1(NC(=O)[C@@H]2C[C@@H]3c4cccc5[nH]cc(c45)C[C@H]3N(C)C2)O[C@@]2(O)[C@@H]3CCCN3C(=O)[C@H](Cc3ccccc3)N2C1=O" returns the recorded outcome of this test.
Response: inactive

Prompt: GET /call?item= NC(=O)CN1CC(O)CC1=O (configuration not stated) returns the recorded outcome of this test.
Response: inactive

Prompt: GET /call?item= CCNCC(O)c1cccc(O)c1 (configuration not stated) returns the recorded outcome of this test.
Response: inactive

Prompt: GET /call?item= CNC1(c2ccccc2Cl)CCCCC1=O (configuration not stated) returns the recorded outcome of this test.
Response: inactive

Prompt: GET /call?item= "Oc1ccc2c3c1O[C@H]1[C@@H](O)CC[C@@]4(O)[C@@H](C2)N(CC2CCC2)CC[C@]314" returns the recorded outcome of this test.
Response: inactive

Prompt: GET /call?item= C#CCN1CC(=O)N(COC(=O)C2C(C=C(C)C)C2(C)C)C1=O (configuration not stated) returns the recorded outcome of this test.
Response: inactive

Prompt: GET /call?item= COC([CH2][Hg])CNC(=O)c1ccccc1OCC(=O)O (configuration not stated) returns the recorded outcome of this test.
Response: inactive

Prompt: GET /call?item= CC(N)Cc1ccc(O)cc1 (configuration not stated) returns the recorded outcome of this test.
Response: inactive

Prompt: GET /call?item= "C[C@@H]1[C@@H]2Cc3ccc(O)cc3[C@@]1(C)CCN2CC1CC1" returns the recorded outcome of this test.
Response: inactive

Prompt: GET /call?item= CCNC1(c2cccs2)CCCCC1=O (configuration not stated) returns the recorded outcome of this test.
Response: inactive

Prompt: GET /call?item= "C=CCN(C1=NCCN1)c1c(Cl)cccc1Cl" returns the recorded outcome of this test.
Response: inactive

Prompt: GET /call?item= "Cc1cccc(C)c1" returns the recorded outcome of this test.
Response: inactive

Prompt: GET /call?item= "O=C(O)/C=C/C(=O)O" returns the recorded outcome of this test.
Response: inactive

Prompt: GET /call?item= "C[N+](C)(C)CCCCCCCCCC[N+](C)(C)C" returns the recorded outcome of this test.
Response: inactive

Prompt: GET /call?item= "CC(C)CCC(=O)O[C@H]1CC[C@H]2[C@@H]3CCC4=CC(=O)CC[C@]4(C)[C@H]3CC[C@]12C" returns the recorded outcome of this test.
Response: active

Prompt: GET /call?item= O=C1OC2(c3cc(Br)c(O)cc3Oc3c2cc(Br)c(O)[c]3[Hg])c2ccccc21 (configuration not stated) returns the recorded outcome of this test.
Response: inactive

Prompt: GET /call?item= "CN[C@@]1(c2ccccc2Cl)CCCCC1=O" returns the recorded outcome of this test.
Response: inactive

Prompt: GET /call?item= C#CC(C)(O)CC (configuration not stated) returns the recorded outcome of this test.
Response: inactive

Prompt: GET /call?item= "CCCCc1ccc(C(=O)O)nc1" returns the recorded outcome of this test.
Response: inactive

Prompt: GET /call?item= "CC(C)C[C@H](CN)CC(=O)O" returns the recorded outcome of this test.
Response: inactive

Prompt: GET /call?item= "C[C@@H](CO)NC(=O)[C@@H]1C=C2c3cccc4[nH]cc(c34)C[C@H]2N(C)C1" returns the recorded outcome of this test.
Response: inactive

Prompt: GET /call?item= "Cc1nnc2n1-c1sc(Br)cc1C(c1ccccc1Cl)=NC2" returns the recorded outcome of this test.
Response: active

Prompt: GET /call?item= "O=C(O)/C=C\C(=O)O" returns the recorded outcome of this test.
Response: inactive

Prompt: GET /call?item= "Cc1cccc(C)c1[N+](=O)[O-]" returns the recorded outcome of this test.
Response: inactive

Prompt: GET /call?item= CC(=O)OC1CN2CCC1CC2 (configuration not stated) returns the recorded outcome of this test.
Response: inactive

Prompt: GET /call?item= "O=C(C[C@@H]1NCCC[C@H]1O)Cn1cnc2cc(Br)c(Cl)cc2c1=O" returns the recorded outcome of this test.
Response: inactive

Prompt: GET /call?item= "CC1(C)[C@H](C=C(Cl)Cl)[C@H]1C(=O)OCc1c(F)c(F)cc(F)c1F" returns the recorded outcome of this test.
Response: inactive

Prompt: GET /call?item= "CCC/C=C/C=C/C(=O)O[C@H]1/C(=C/C(=O)OC)C[C@H]2C[C@H]([C@@H](C)O)OC(=O)C[C@H](O)C[C@@H]3C[C@H](OC(C)=O)C(C)(C)[C@](O)(C[C@@H]4C/C(=C/C(=O)OC)C[C@H](/C=C/C(C)(C)[C@]1(O)O2)O4)O3" returns the recorded outcome of this test.
Response: inactive

Prompt: GET /call?item= "CCON=O" returns the recorded outcome of this test.
Response: inactive

Prompt: GET /call?item= "CC1(C)S[C@@H]2[C@H](N)C(=O)N2[C@H]1C(=O)O" returns the recorded outcome of this test.
Response: inactive

Prompt: GET /call?item= CC1COC(Cn2cncn2)(c2ccc(Oc3ccc(Cl)cc3)cc2Cl)O1 (configuration not stated) returns the recorded outcome of this test.
Response: active

Prompt: GET /call?item= "CCc1cc(OC)c(C[C@@H](C)N)cc1OC" returns the recorded outcome of this test.
Response: inactive

Prompt: GET /call?item= CN(C)CCCCCCN(C)C (tested in a mixture with another compound) returns the recorded outcome of this test.
Response: inactive

Prompt: GET /call?item= "CCOc1ccc2c3c1O[C@H]1[C@@H](O)C=C[C@H]4[C@@H](C2)N(C)CC[C@@]341" returns the recorded outcome of this test.
Response: inactive

Prompt: GET /call?item= "CC(C)(O)[C@@H]1[C@H]2OC(=O)[C@@H]1[C@]1(O)C[C@H]3O[C@]34C(=O)O[C@H]2[C@]14C" returns the recorded outcome of this test.
Response: inactive

---

assay: qHTS assay to identify small molecule antagonists of the thyroid receptor (TR) signaling pathway (AID 743065); conditions: GH3.TRE-Luc, T3-stimulated luciferase inhibition, 23.5 h; series mostly up to 70.3 µM; also: nearly all actives have a fitted effect of over 55% in size
Records with an inconclusive call do not appear. Activity calls are given as the source filed them. The call rests on the fitted dose curve; in most records, active means well fitted inhibition curve with a large enough effect in the repeat runs; inconclusive means weak or mixed curves; inactive means no such curve, though single readings can be large or run the other way.
Allowed answers: active, inactive

Prompt: GET /call?item= CCCCC[C@@H](O)C1C(=O)OC(C)[C@H](O)/C=C/C=C/C=C/C=C/C=C(\C)C(O)C(O)C(O)C[C@H](O)C[C@H](O)C[C@H](O)C[C@H](O)C[C@@H]1O (stereo partly specified) returns the recorded outcome of this test.
Response: inactive

Prompt: GET /call?item= "CCCCNC(C)(C)[P+](=O)O" returns the recorded outcome of this test.
Response: inactive

Prompt: GET /call?item= C[N+]1([O-])[C@@H]2CC(OC(=O)[C@H](CO)c3ccccc3)C[C@H]1[C@@H]1O[C@@H]12 (stereo partly specified) returns the recorded outcome of this test.
Response: inactive

Prompt: GET /call?item= "CO/C=C(/C(=O)OC)c1ccccc1Oc1cc(Oc2ccccc2C#N)ncn1" returns the recorded outcome of this test.
Response: active

Prompt: GET /call?item= "CCC1(c2cnc[nH]2)Cc2ccccc2C1" returns the recorded outcome of this test.
Response: inactive

Prompt: GET /call?item= O=P1(N(CCCl)CCCl)NC(OO)CCO1 (stereo unspecified) returns the recorded outcome of this test.
Response: inactive

Prompt: GET /call?item= "COc1cc([C@@H]2c3cc4c(cc3[C@@H](O)[C@H]3COC(=O)[C@H]23)OCO4)cc(OC)c1O" returns the recorded outcome of this test.
Response: active

Prompt: GET /call?item= "CCC1(C)CC(=O)NC(=O)C1" returns the recorded outcome of this test.
Response: inactive

Prompt: GET /call?item= "C=CCC1([C@@H](C)CCC)C(=O)NC(=O)NC1=O" returns the recorded outcome of this test.
Response: inactive

Prompt: GET /call?item= O=C1C[C@@H]2OCC=C3CN4CC[C@]56c7ccccc7N1[C@H]5[C@H]2[C@H]3C[C@H]46 (tested in a mixture with another compound) returns the recorded outcome of this test.
Response: inactive

Prompt: GET /call?item= "O=C(CCl)c1ccc(Oc2ccc(C(=O)CCl)cc2)cc1" returns the recorded outcome of this test.
Response: inactive

Prompt: GET /call?item= CNC1(c2ccccc2Cl)CCCCC1=O (stereo unspecified) returns the recorded outcome of this test.
Response: inactive

Prompt: GET /call?item= "O=[N+]([O-])c1ccccc1Cl" returns the recorded outcome of this test.
Response: inactive

Prompt: GET /call?item= "Oc1ccc2c3c1O[C@H]1[C@@H](O)CC[C@@]4(O)[C@@H](C2)N(CC2CCC2)CC[C@]314" returns the recorded outcome of this test.
Response: inactive

Prompt: GET /call?item= O=C(CS(=O)C(c1ccccc1)c1ccccc1)NO (stereo unspecified) returns the recorded outcome of this test.
Response: inactive

Prompt: GET /call?item= "CNC(=O)OCC[N+](C)(C)C" returns the recorded outcome of this test.
Response: inactive

Prompt: GET /call?item= "CC(C)(O)[C@@H]1[C@H]2OC(=O)[C@@H]1[C@]1(O)C[C@H]3O[C@]34C(=O)O[C@H]2[C@]14C" returns the recorded outcome of this test.
Response: inactive

Prompt: GET /call?item= CN1[C@@H]2CC[C@H]1CC(OC1c3ccccc3CCc3ccccc31)C2 (stereo partly specified) returns the recorded outcome of this test.
Response: active

Prompt: GET /call?item= "COc1ccc(OC)c([C@@H](O)[C@H](C)N)c1" returns the recorded outcome of this test.
Response: inactive

Prompt: GET /call?item= "C[C@]12C=CC(=O)C=C1CC[C@@H]1[C@@H]2CC[C@]2(C)OC(=O)CC[C@@H]12" returns the recorded outcome of this test.
Response: inactive

Prompt: GET /call?item= CCC1C(C)=NN=C(c2ccc(OC)c(OC)c2)c2cc(OC)c(OC)cc21 (stereo unspecified) returns the recorded outcome of this test.
Response: inactive
